Entry source: patent US8975398B2

Target or system: NAMPT (human, recombinant, C-terminally His-tagged) (Homo sapiens, UniProt P43490)
Sequence (P43490 whole entry): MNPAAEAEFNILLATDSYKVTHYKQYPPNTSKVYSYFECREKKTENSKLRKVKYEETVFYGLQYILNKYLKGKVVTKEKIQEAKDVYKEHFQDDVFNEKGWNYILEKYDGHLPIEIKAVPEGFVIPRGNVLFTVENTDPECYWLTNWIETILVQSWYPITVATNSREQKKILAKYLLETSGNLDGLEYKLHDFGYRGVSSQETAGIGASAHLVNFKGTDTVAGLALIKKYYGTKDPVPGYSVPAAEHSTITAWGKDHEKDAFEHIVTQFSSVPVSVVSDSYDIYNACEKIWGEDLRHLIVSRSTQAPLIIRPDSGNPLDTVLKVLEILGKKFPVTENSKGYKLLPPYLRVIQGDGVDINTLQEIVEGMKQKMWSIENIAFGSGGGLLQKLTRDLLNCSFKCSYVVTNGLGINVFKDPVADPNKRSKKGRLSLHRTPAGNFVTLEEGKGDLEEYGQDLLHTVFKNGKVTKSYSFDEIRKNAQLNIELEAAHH
Protocol summary: Time-Resolved Fluorescence Resonance Energy Transfer (TR-FRET) Binding Assay of NAMPT
Settings: 6.8 nM NAMPT, 200 nM probe, equilibrated 3 hours, absence of substrates
Parameter measured: pIC50
Remember, pIC50 is on a log scale: it is -log10 of the molar concentration.

O=C(Nc1ccc(OC2CCN(C(=O)c3ccc(C(F)(F)F)cc3)CC2)cc1)C1CN(c2cccnn2)C1 [Example 237]    6.62
O=C(Nc1ccc(OC2CCN(C(=O)C3CCC(F)(F)CC3)CC2)cc1)C1CN(c2ccnnc2)C1 [Example 270]    7.13
O=C(Nc1ccc(OC2CCN(C(=O)c3ccc(F)cc3)CC2)cc1)C1CN(c2ccnnc2)C1 [Example 271]    7.11
O=C(Nc1ccc(C2CCN(C(=O)CC3CCOCC3)CC2)cc1)[C@H]1CCN(c2cccnn2)C1 [Example 312]    5.95
O=C(Nc1ccc(C2CCN(C(=O)CC3CCCCC3)CC2)cc1)C1CN(c2cccnc2)C1 [Example 119]    8.21

## Input Item CC(C)CCN1CCC(Oc2ccc(NC(=O)C3CN(c4cccnc4)C3)cc2)CC1 [Example 77] has what recorded pIC50?
## Output 5.52

## Input Item O=C(Nc1ccc(OC2CN(C(=O)C3CCCO3)C2)cc1)C1CN(c2ccnnc2)C1 (centres unmarked) [Example 262] has what recorded pIC50?
## Output 6.89

## Input Item Cn1cccc1C(=O)N1CCC(Oc2ccc(NC(=O)C3CN(c4cccnc4)C3)cc2)CC1 [Example 64] has what recorded pIC50?
## Output 7.26

* * *

Target or system: UniProt P43490
pIC50: −log10 of the molar value.
Rule: pIC50 under 9 gives not satisfied, otherwise satisfied.

Sample answers from the record:
O=C(Nc1ccc(OC2CCN(C(=O)Cc3ccc(OC(F)(F)F)cc3)CC2)cc1)C1CN(c2ccnnc2)C1    not satisfied
CC(C)(C)CC(=O)N1CC(Oc2ccc(NC(=O)C3CN(c4ccnnc4)C3)cc2)C1    not satisfied
O=C1CC[C@H](C(=O)N2CCC(c3ccc(NC(=O)C4CN(c5cccnc5)C4)cc3)CC2)N1    satisfied
O=C(Nc1ccc(OC2CCN(C(=O)[C@@H]3CCCO3)CC2)cc1)C1CN(c2cccnc2)C1    satisfied
COCCOCC(=O)N1CCC(c2ccc(NC(=O)C3CN(c4cccnc4C)C3)cc2)CC1    not satisfied
CC(C)C(C)C(=O)N1CCC(c2ccc(NC(=O)C3CN(c4cccnc4)C3)cc2)CC1 (stereo not shown)    satisfied
CC(C)C(=O)N1CCC(Oc2ccc(NC(=O)C3CN(c4ccnnc4)C3)cc2)CC1    not satisfied
Cc1ccc(C(=O)N2CCC(c3ccc(NC(=O)C4CN(c5cccnc5)C4)cc3)CC2)s1    satisfied

Consider the additional compound presented here.
## Input Check this compound for pIC50 at or above 9: O=C(Nc1ccc(OC2CCN(C(=O)C3CCOC3)CC2)cc1)[C@H]1CCN(c2cccnc2)C1 (stereo partly shown)
## Output not satisfied

* * *

Tested on: PC3 cells
Protocol summary: NAMPT Cell Proliferation Assay (Cell Titer Glo; also performed in the presence of 0.3 mM nicotinamide mononucleotide)
Type: cell-based
Settings: Homo sapiens, PC-3, 120 h, 5 days incubation, cell viability by Cell Titer Glo
Let's look at some compounds and their measured pIC50.
Remember, pIC50 is on a log scale: it is -log10 of the molar concentration.

Answered cases to consult:
COCC(=O)N1CCC(Cc2ccc(NC(=O)C3CN(c4cccnn4)C3)cc2)CC1    8.12
CC[C@@H](C)NC(=O)c1ccc(NC(=O)C2CN(c3cccnn3)C2)cc1    6.22
CCC(C)(C)C(=O)N1CCC(c2ccc(C(=O)N[C@H]3CCN(c4cccnn4)C3)s2)CC1    7.05
O=C(Nc1ccc(CC2CCN(C(=O)c3ccco3)CC2)cc1)C1CN(c2cccnn2)C1    8.66
CC(C)(C)C(=O)N1CCC(Cc2ccc(NC(=O)C3CN(c4cccnn4)C3)cc2)CC1    8.81

## Input Item O=C(Nc1ccc(CC2CCN(C(=O)CCC(F)(F)F)CC2)cc1)C1CN(c2cccnn2)C1 has what recorded pIC50?
## Output 8.65

## Input Item O=C(NCCC1CC1)c1ccc(NC(=O)C2CN(c3cccnn3)C2)cc1 has what recorded pIC50?
## Output 7.01

## Input Item O=C(Nc1ccc(CC2CCN(C(=O)CC(F)(F)F)CC2)cc1)C1CN(c2cccnn2)C1 has what recorded pIC50?
## Output 8.43

* * *

Let's look at some molecules and their measured IC50.
Target or system: NAMPT (human, recombinant, C-terminally His-tagged) (Homo sapiens)
Protocol summary: Time-Resolved Fluorescence Resonance Energy Transfer (TR-FRET) Binding Assay of NAMPT
Settings: 6.8 nM NAMPT, 200 nM probe, equilibrated 3 hours, absence of substrates
Don't forget the unit after the value.

CC(C)C(=O)N1CCC(Oc2ccc(NC(=O)[C@H]3CCN(c4cccnc4)C3)cc2)CC1 [Example 12]    1.41 µM
CC(C)(O)C(=O)N1CCC(Oc2ccc(NC(=O)C3CN(c4cccnc4)C3)cc2)CC1 [Example 31]    0.135 µM

## Input Item Cc1ncccc1N1CC(C(=O)Nc2ccc(C3CCN(C(=O)C4(C)CCCCC4)CC3)cc2)C1 [Example 177] has what recorded IC50?
## Output 0.0604 µM

## Input Item O=C(Nc1ccc(OC2CCN(C(=O)C3CC3)CC2)cc1)C1CN(c2cccnn2)C1 [Example 251] has what recorded IC50?
## Output 0.23 µM

* * *

Target or system: NAMPT (human, recombinant, C-terminally His-tagged) (Homo sapiens)
Protocol summary: Time-Resolved Fluorescence Resonance Energy Transfer (TR-FRET) Binding Assay of NAMPT
Settings: 6.8 nM NAMPT, 200 nM probe, equilibrated 3 hours, absence of substrates
Method: Determination of the utility of compounds having Formula (I) as binders to and inhibitors of NAMPT was performed using Time-Resolved Fluorescence Resonance Energy Transfer (TR-FRET) binding assays. Time-Resolved Fluorescence Resonance Energy Transfer (TR-FRET) Binding Assay of NAMPT […]
pIC50: −log10 of the molar value.
Rule: pIC50 under 7 gives NOT MET, otherwise MET.

Sample answers from the record:
O=C(Nc1ccc(OC2CCN(C(=O)Cc3ccc(OC(F)(F)F)cc3)CC2)cc1)C1CN(c2ccnnc2)C1    NOT MET
O=C(Nc1ccc(OC2CCN(C(=O)c3cc(F)cc(F)c3)CC2)cc1)C1CN(c2cccnn2)C1    NOT MET
O=C(Nc1ccc(C2CCN(C(=O)CC3CCCCC3)CC2)cc1)C1CN(c2cccnn2)C1    MET
O=C(Nc1ccc(OC2CCN(C(=O)c3cccs3)CC2)cc1)C1CN(c2cccnc2)C1    MET
Cc1ncccc1N1CC(C(=O)Nc2ccc(C3CCN(C(=O)c4cccn4C)CC3)cc2)C1    MET
O=C(Nc1ccc(OC2CN(C(=O)c3ccc(F)cc3F)C2)cc1)C1CN(c2ccnnc2)C1    MET

## Input Check this molecule for pIC50 at or above 7: CC(C)(C)CC(=O)N1CCC(c2ccc(NC(=O)C3CN(c4ccnnc4)C3)cc2)CC1
## Output MET

## Input Check this molecule for pIC50 at or above 7: CC(C)CCN1CCC(c2ccc(NC(=O)C3CN(c4cccnc4)C3)cc2)CC1
## Output NOT MET

## Input Check this molecule for pIC50 at or above 7: CC(C)Cn1cc(-c2ccc(C(=O)NC3CN(c4cccnn4)C3)s2)cn1
## Output NOT MET

## Input Check this molecule for pIC50 at or above 7: Cn1cccc1C(=O)N1CCC(c2ccc(NC(=O)C3CN(c4cccnc4)C3)cc2)CC1
## Output MET

* * *

Target or system: NAMPT (human, recombinant, C-terminally His-tagged) (Homo sapiens, UniProt P43490)
Protocol summary: Time-Resolved Fluorescence Resonance Energy Transfer (TR-FRET) Binding Assay of NAMPT
Settings: 6.8 nM NAMPT, 200 nM probe, equilibrated 3 hours, absence of substrates
Let's look at some molecules and their measured pIC50.
Remember, pIC50 is on a log scale: it is -log10 of the molar concentration.

CCC(C)(C)CN1CCC(Oc2ccc(NC(=O)C3CN(c4cccnc4)C3)cc2)CC1 [Example 84]    5.22

## Input Item CCC(C)(C)C(=O)N1CCC(c2ccc(NC(=O)C3CN(c4cccnc4C)C3)cc2)CC1 [Example 193] has what recorded pIC50?
## Output 7.40

## Input Item O=C(Nc1ccc(OC2CCN(C(=O)Cc3ccc(F)cc3)CC2)cc1)C1CN(c2ccnnc2)C1 [Example 276] has what recorded pIC50?
## Output 6.87

## Input Item Cc1ncccc1N1CC(C(=O)Nc2ccc(C3CCN(C(=O)c4ccoc4)CC3)cc2)C1 [Example 165] has what recorded pIC50?
## Output 7.45

## Input Item O=C(Nc1ccc(OC2CCN(C(=O)c3ccccn3)CC2)cc1)C1CN(c2cccnn2)C1 [Example 242] has what recorded pIC50?
## Output 6.56

## Input Item CC1CC1C(=O)N1CC(Oc2ccc(NC(=O)C3CN(c4ccnnc4)C3)cc2)C1 (stereo not shown) [Example 257] has what recorded pIC50?
## Output 7.19

## Input Item Cc1ncccc1N1CC(C(=O)Nc2ccc(C3CCN(C(=O)CC4CCCCC4)CC3)cc2)C1 [Example 179] has what recorded pIC50?
## Output 7.00
